Record form. Attribute: z-score. Fill in for each entry.
- PROCEDURE TEXT: MM1S myeloma cell viability, profiling panel, resazurin fluorescence, basal, 24 h, PK04 Diversity Set (AID 1174);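 further: MM1S multiple myeloma cell line; test concentration not given here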
- MEASUREMENT CONDITIONS: higher = more signal, called active from +8 up or from −8 down
No unit in the answer, only the number.

query: Return z-score (reported value) for this compound: CCOC(=O)CCN1C(=O)[C@H]2[C@H]3[C@H](O)[C@H](O)CC(=NOCc4ccccc4)[C@H]3CC[C@H]2C1=O
result: -1.34

query: Return z-score (reported value) for this compound: CCc1cc2c(nc1CC)CCN(CCC(C)=NOC[C@H]1O[C@H](c3ccccc3)C=C[C@@H]1Oc1ccc(OC)cc1)C2
result: 0.22

query: Return z-score (reported value) for this compound: O=c1n(-c2ccccc2)c(=O)n2n1CC[C@@H]1C(=NOCc3ccccc3)[C@H]3O[C@H]3[C@@H](O)[C@@H]12
result: -0.503

query: Return z-score (reported value) for this compound: CC(C)=CCCC(C)=CCON=C1C[C@@H](O)[C@@H](O)[C@@H]2[C@@H]3C(=O)N(Cc4ccccc4)C(=O)[C@@H]3CC[C@@H]12
result: 0.772

query: Return z-score (reported value) for this compound: O=C1CCCC(C2=CCCCC2=O)C1 (stereo not given)
result: -1.83

query: Return z-score (reported value) for this compound: C[C@H]1COC(=O)[C@@H]2CCCN2C(=O)[C@@H](C)COC(=O)[C@H](Cc2ccccc2)NC1=O
result: -0.208

query: Return z-score (reported value) for this compound: C=CC[C@@H]1C=C[C@H](ON=C(C)CCC(=O)OC[C@H]2O[C@H](C#Cc3ccccc3)C=C[C@@H]2Oc2ccc(C)cc2)[C@@H](CO)O1
result: 0.212

query: Return z-score (reported value) for this compound: C=CC[C@@H]1C=C[C@H](ON=C(C)CCN2CCc3nc(-c4ccccc4)c(-c4ccccc4)cc3C2)[C@@H](CO)O1
result: -2.02

query: Return z-score (reported value) for this compound: O=C1C[C@@H](O)[C@@H](O)[C@@H]2[C@@H]3C(=O)N(C[C@@H]4CCCO4)C(=O)[C@@H]3CC[C@H]12
result: -0.0898

query: Return z-score (reported value) for this compound: C[C@H]1CC[C@H]2C(=O)OC(CO)CN2[C@@H]1c1ccc(Br)cc1 (stereo not given in full)
result: -0.0363

query: Return z-score (reported value) for this compound: CO[C@@H]1COC(=O)[C@@H](C)NC(=O)CC=C[C@@H](C)[C@H](NS(=O)(=O)c2ccc(C)cc2)COC(=O)[C@H](C)NC(=O)CC=C[C@H]1C
result: 0.416

query: Return z-score (reported value) for this compound: CO[C@H]1COC(=O)CCC[C@@H](C)[C@H](OC)COC(=O)[C@@H](C)NC(=O)CC=C[C@@H]1C
result: 0.77

query: Return z-score (reported value) for this compound: CCOC(=O)[C@H](CC(C)C)NC(=O)CCC1CC(OC(=O)NCCc2ccc(F)cc2)CC2(CCCC(COC(=O)NCCc3ccc(Cl)cc3)O2)O1 (stereo not given in full)
result: -0.0687

query: Return z-score (reported value) for this compound: O=C1[C@H]2[C@H]3[C@H](O)[C@H](O)CC(=NOCc4ccccc4)[C@H]3CC[C@H]2C(=O)N1Cc1ccc2c(c1)OCO2
result: 0.13

query: Return z-score (reported value) for this compound: CO[C@H]1COC(=O)[C@@H](C)COC(=O)[C@H](COCc2ccccc2)NC(=O)CC=C[C@H]1C
result: 0.671

query: Return z-score (reported value) for this compound: Cc1cc2c(c(=O)o1)[C@@H](O)[C@H]1O[C@H]1C2=O
result: 0.166

query: Return z-score (reported value) for this compound: C#CCCCON=C1C[C@@H](O)[C@@H](O)[C@@H]2[C@@H]3C(=O)N(C(C)(C)C)C(=O)[C@@H]3CC[C@@H]12
result: -1.24

query: Return z-score (reported value) for this compound: CO[C@H]1COC(=O)CCC[C@@H](C)[C@H](OC)COC(=O)[C@@H]2CCCN2C(=O)CC=C[C@@H]1C
result: 0.435

query: Return z-score (reported value) for this compound: COc1ccc(O[C@H]2C=C[C@@H](c3ccccc3)O[C@@H]2COC(=O)CCC(C)=NO[C@@H]2O[C@H](COC(C)=O)[C@@H](OC(C)=O)[C@H](OC(C)=O)[C@H]2OC(C)=O)cc1
result: -0.169

query: Return z-score (reported value) for this compound: CCOC(=O)[C@H](Cc1ccccc1)NC(=O)CCC1CC(OC(=O)NCc2cccc3ccccc23)CC2(CCCC(COC(=O)NCCC(C)C)O2)O1 (stereo not given in full)
result: 1.3

query: Return z-score (reported value) for this compound: COC(=O)[C@@H]1CC[C@H](C)[C@@H](c2ccc(C)cc2)N1C(=O)c1ccc(C=NO[C@H](C)c2cn([C@@H]3COC[C@H]3O)nn2)cc1
result: -0.943

query: Return z-score (reported value) for this compound: CC(CCN1CCCCc2nc(C)c(C)cc21)=NO[C@@H](C)c1cn([C@H](CO)Cc2ccccc2)nn1
result: -1.85

query: Return z-score (reported value) for this compound: O=C1C=C[C@@H](O)[C@@H]2[C@@H]3C(=O)N(C[C@@H]4CCCO4)C(=O)[C@@H]3CC[C@@H]12
result: 0.561

query: Return z-score (reported value) for this compound: C[C@@H]1C=CCC(=O)OC[C@H]2O[C@@H](C=C[C@@H]2O)[C@H](C)C=CCC(=O)OC1
result: 0.324

query: Return z-score (reported value) for this compound: CCO[C@H](c1cc(OC)cc([N+](=O)[O-])c1OC)[C@H](C)C=CCC(=O)OC
result: -1.43

query: Return z-score (reported value) for this compound: CCCNC(=O)OC[C@H]1O[C@H](CCON=C(C)CCN2CCCc3nc(C)c(C)cc32)C=C[C@@H]1Oc1ccc(OC)cc1
result: -0.291

query: Return z-score (reported value) for this compound: C[C@@H](ON=C1[C@H]2CCn3c(=O)n(-c4ccccc4)c(=O)n3[C@H]2[C@H](O)[C@@H]2O[C@H]12)c1cn([C@@H]2COC[C@H]2O)nn1
result: -0.739

query: Return z-score (reported value) for this compound: CCCNC(=O)OC[C@H]1O[C@H](CCON=C(C)CCN2CCc3nc(CC)c(CC)cc3C2)C=C[C@@H]1Oc1ccc(OC)cc1
result: -1.45

query: Return z-score (reported value) for this compound: O=C(NN=C1C[C@@H](O)[C@@H](O)[C@@H]2[C@@H]3C(=O)N(C4CCCCC4)C(=O)[C@@H]3CC[C@H]12)OCc1ccccc1
result: -0.531

query: Return z-score (reported value) for this compound: Cc1ccc(S(=O)(=O)OC[C@H]2CN3[C@H](c4ccc(Br)cc4)[C@@H](C)CC[C@H]3C(=O)O2)cc1
result: 0.648

* * *

- PROCEDURE TEXT: PSAC antagonists in infected red cells, primary screen, cell-based, P. falciparum Indochina, OD700, 2 h (AID 1155);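 further: lysis reports solute entry through the parasite surface anion channel PSAC; channel blockers reduce lysis of infected cells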
- MEASUREMENT CONDITIONS: P. falciparum Indochina infected erythrocytes, osmotic lysis OD700; higher = more signal, called active from +8 up or from −8 down
Where z-score equals or exceeds 0.5, the correct label is true (1); where it does not, the label is false (0).

query: Does the reported z-score for C[C@H]1CC[C@H]2C(=O)OC(CO)CN2[C@@H]1c1ccc(Br)cc1 (some centres not stated) fall at or above the 0.5 mark?
result: true (1)

query: Does the reported z-score for CO[C@H]1COC(=O)[C@H](C)NC(=O)[C@@H](C)COC(=O)[C@H]2CCCN2C(=O)CC=C[C@H]1C fall at or above the 0.5 mark?
result: false (0)

query: Does the reported z-score for CC(CCC(=O)OC[C@H]1O[C@H](C#Cc2ccccc2)C=C[C@@H]1Oc1ccc(C)cc1)=NO[C@H](C)c1cn([C@H](CO)Cc2ccccc2)nn1 fall at or above the 0.5 mark?
result: true (1)

query: Does the reported z-score for COC(=O)[C@H](C)NC(=O)CCC1CC(OC(=O)NCc2ccc3c(c2)OCO3)CC2(CCCC(COC(=O)NCCc3ccccc3OC)O2)O1 (some centres not stated) fall at or above the 0.5 mark?
result: true (1)

query: Does the reported z-score for CCOC(=O)[C@H](Cc1ccccc1)NC(=O)CCC1CC(OC(=O)NCCc2ccc(F)cc2)CC2(CCCC(COC(=O)NCCc3ccccc3OC)O2)O1 (some centres not stated) fall at or above the 0.5 mark?
result: false (0)

query: Does the reported z-score for CCCCC#C[C@@H]1C=C[C@H](Oc2ccc(C(=O)OC)cc2)[C@@H](COC(=O)OCC)O1 fall at or above the 0.5 mark?
result: true (1)

query: Does the reported z-score for CCN1C(=O)[C@H]2[C@H]3[C@H](O)[C@H](O)CC(=NO[C@@H](C)c4cn([C@H](CO)Cc5ccccc5)nn4)[C@@H]3CC[C@H]2C1=O fall at or above the 0.5 mark?
result: false (0)
